tested on: SN12C; test: NCI tumour cell line growth inhibition, 48 h
Activity calls are given as the source filed them. No stated cut-off is given here; in the data, active = GI50 up to about 1.1 µM and inactive = higher.
A correct response names exactly one class from Yes = active, No = inactive

COC(=O)/C=C\Sc1ccn(/C=C\C(=O)OC)c(=S)n1
No

From here, focus on the item given below.
Recorded test call requested for COc1ccc(C[P+]2(c3ccccc3)CCCCC2)cc1.O=[N+]([O-])c1ccc(C[P+]2(c3ccccc3)CCCCC2)cc1.[O-][Cl+3]([O-])([O-])[O-].[O-][Cl+3]([O-])([O-])[O-] No

* * *

Kindly supply the reported GI50 values for the records listed here.
system: ACHN; experiment: NCI tumour cell line growth inhibition, 48 h
Activity calls are given as the source filed them. Cut-off read from the data, not from the text of the source: active = GI50 up to about 1.1 µM and inactive = higher.

O=C(Nc1ccc(Sc2ccc(/N=N/c3c(O)c(S(=O)(=O)O)cc4cc(S(=O)(=O)O)ccc34)cc2)cc1)c1ccc(/N=N/c2c(O)ccc3c(S(=O)(=O)O)cc(S(=O)(=O)O)cc23)cc1
29.4 µM (inactive)
CCCCc1ccc(-n2c(C)c(COC(=O)NC)c(COC(=O)NC)c2C)cc1
2.11 µM (inactive)

I have 7 molecules here; please give me GI50 for each one.
1. CC(=O)Oc1c(-c2ccccc2)sc2ccccc12
2. CC1(C)CC(=O)C2=C(C1)OC1(CC2c2ccc(Cl)cc2)CC(c2ccc(Cl)cc2)C2=C(CC(C)(C)CC2=O)O1 (centres undefined)
3. CCOC(=O)c1c(CN2CCNCC2)nc2ccccc2c1-c1ccccc1
4. CNC(=O)CCC(NC(C)=O)C(=O)NC(Cc1ccc(NC(=O)CCCCC(C)=O)cc1)C(=O)NC(CCC(=O)NC)C(=O)NC (centres undefined)
5. CN/C(=N\C#N)N(Cc1ccccc1)Cc1ccccc1
6. CCc1ccc(NCc2cc(OC)c(OC)c(OC)c2)cc1
7. Cc1ccc(S(=O)(=O)N2CC3OC(C)(C)OC3C2CO)cc1 (centres undefined)

1. 15.6 µM (inactive)
2. 18.5 µM (inactive)
3. 16.8 µM (inactive)
4. > 100 µM (inactive)
5. > 100 µM (inactive)
6. 2.24 µM (inactive)
7. > 100 µM (inactive)

* * *

test system: SK-MEL-2; experiment: NCI tumour cell line growth inhibition, 48 h
Calls of active or inactive are those of the source. Cut-off read from the data, not from the text of the source: active = GI50 up to about 1.1 µM and inactive = higher.
observed-property: GI50

Here are 5 molecules together with their reported answers.
O=C(/C=N/O)Nc1cc(Cl)c(Cl)cc1Cl
24.9 µM (inactive)
CC(C)C1/C(=N/O)CC(c2ccccc2)N(N=O)C1c1ccccc1 (stereo unspecified)
24.5 µM (inactive)
O=C1CCN2CCC(=O)c3c2c(cc2ccccc32)N1
> 100 µM (inactive)
CCOC(=O)C(=CNc1ccc(F)c(F)c1)C(=O)OCC
> 100 µM (inactive)
CC(C)CC(=O)CC(O)C(Cl)(Cl)Cl (stereo unspecified)
> 100 µM (inactive)

With those in mind, consider the next molecule.
Write down GI50 measured for item O=C1C(Cl)N(c2ccc(Cl)cc2)C1c1c[nH]c2ccccc12 (stereo unspecified) 14.5 µM (inactive)

* * *

system: RPMI-8226; test: NCI tumour cell line growth inhibition, 48 h
Activity calls are given as the source filed them. Cut-off read from the data, not from the text of the source: active = GI50 up to about 1.1 µM and inactive = higher.
Provide the recorded GI50 for the entries that follow.

Cc1ccc(C(=O)/C=C2\Nc3cccnc3NC2=O)cc1
> 100 µM (inactive)
CCCN(C(=O)c1c(Cl)nnc(Cl)c1C(=O)c1cc(Cl)nnc1Cl)c1cc(Cl)nnc1Cl
3.65 µM (inactive)

Look at each molecule and report its GI50.
1. O=c1ccn([C@@H]2C[C@H]2CO)c(=O)[nH]1
2. Cc1cccc2c1Oc1cc(Cl)ccc1C2NC(=O)CCN1CCCCC1 (stereo not given)
3. COc1ccc2c(c1)[n+]([O-])c(C(=O)C/C(=N/OCCCc1ccccc1)C(=O)NC13CC4CC(CC(C4)C1)C3)c(C)[n+]2[O-]

1. > 100 µM (inactive)
2. 25 µM (inactive)
3. > 100 µM (inactive)

* * *

system: KM12; assay: NCI tumour cell line growth inhibition, 48 h
Calls of active or inactive are those of the source. Rule as the data show it: active = GI50 up to about 1.1 µM and inactive = higher.
Task for the reader: assign each of the following compounds its reported GI50.

CCOC(=O)C(=CNc1ccc(F)c(F)c1)C(=O)OCC
> 100 µM (inactive)
CN(C)CCSS(=O)(=O)O
> 100 µM (inactive)
N/N=C(/C(=O)Nc1cccc(Cl)c1)C(C(=O)c1ccc(O)cc1O)C1OC(=O)c2ccccc21 (stereo unspecified)
> 100 µM (inactive)

Record GI50 for all entries; do not skip any.
1. Cc1cn(C2CC(O)C(CO)O2)c(=O)[nH]c1=O (stereo unspecified)
2. O=C(/C=C\c1cccc2ccccc12)c1ccc(Br)cc1
3. COc1ncnc2c(Cl)c(C(O)c3ccccc3)c(Cl)cc12 (stereo unspecified)
4. O=C1CCC(O)=C1O
5. Cc1cc(=O)oc2cc3c(cc12)Oc1ccccc1O3
6. Cc1ccc([N+](=O)[O-])cc1S(=O)(=O)Nc1ccc(C2=NOC(c3ccccc3O)C2)cc1 (stereo unspecified)
7. COc1ccc(/C=C2\CCC(C)C3=C(c4ccc(OC)c(OC)c4)C(C#N)=C(N)OC32)cc1OC (stereo unspecified)

1. > 4930 µM (inactive)
2. 15.1 µM (inactive)
3. 26.7 µM (inactive)
4. > 100 µM (inactive)
5. > 100 µM (inactive)
6. 3.16 µM (inactive)
7. 3.3 µM (inactive)

Indicate its recorded GI50; the compound in question is [O-][S+](c1ccccc1)c1ccc(/N=N/O)nc1 (stereo unspecified) > 100 µM (inactive)

* * *

tested on: Malme-3M; assay: NCI tumour cell line growth inhibition, 48 h
Calls of active or inactive are those of the source. No stated cut-off is given here; in the data, active = GI50 up to about 1.1 µM and inactive = higher.
Provide the reported GI50 of each item.

Study these solved cases before continuing.
CCCCCCCCCC1CC(=O)Oc2cccc(O)c21 (stereo not given)
18.7 µM (inactive)
COc1cc2c(cc1OC)C1(c3ccccc3)ON=C(c3ccccc3)N1CS2 (stereo not given)
> 100 µM (inactive)
O=C(NC12CC3CC(CC(C3)C1)C2)C(=O)c1c[nH]c2ccccc12
15 µM (inactive)
CC(C)(C)OC(=O)N1C[C@H](CC(=O)OCc2ccccc2)C[C@H]1C(=O)OCC(Cl)(Cl)Cl
6.28 µM (inactive)
CCC1CC(C)=CCN1S(=O)(=O)c1ccc(C)cc1 (stereo not given)
17.3 µM (inactive)

I would be grateful if you could provide GI50 for each of the following entries.
1. COC(=O)[C@](C)(Cc1ccccc1)NC(=O)[C@@H](C)N1[C@@H](c2ccccc2)COC1(C)C
2. CC1=NCC[N+]1(CCc1ccccc1)Cc1ccccc1 (stereo not given)
3. CC1=CC(C)C/C=C/C2C3OC3(C)C(C)C3C(Cc4c[nH]c5ccccc45)NC(=O)C23C(=O)C=CC(=O)C1O (stereo not given)
4. Cc1ccc([N+](=O)[O-])cc1S(=O)(=O)Nc1ccc(C2=NOC(c3ccccc3O)C2)cc1 (stereo not given)
5. CCOC(=O)NC(=O)c1cn(CC(=O)NCC(=O)NCC(=O)NCCCN2CCN(CCCNC(=O)CNC(=O)CNC(=O)Cn3cc(C(=O)NC(=O)OCC)c(=O)[nH]c3=O)CC2)c(=O)[nH]c1=O
6. CC12Oc3ccc4ccccc4c3CC1Cc1c(ccc3ccccc13)O2 (stereo not given)

1: 44.6 µM (inactive); 2: 20.4 µM (inactive); 3: 1.56 µM (inactive); 4: 3.95 µM (inactive); 5: > 100 µM (inactive); 6: 3.44 µM (inactive)

Okay, here is my list. What is GI50 for each of these?
1. O=C1NC(=S)NC1C(Cc1ccccc1)c1ccco1 (stereo not given)
2. CS(=O)(=O)Nc1ccc2c(c1)N(S(C)(=O)=O)CC2CCl (stereo not given)
3. COc1cc(-c2ccccc2N)c2cccnc2c1OC
4. CC[C@]12C=CCN3CC[C@@]4(c5cc(Br)c(OC)cc5N(C)[C@H]4[C@@](O)(C(=O)N[C@@H](Cc4ccc(O)cc4)C(=O)OC)[C@@H]1O)[C@@H]32
5. COc1ccc(OC)c2c1-c1nnnn1CCC2(C)C

1: > 100 µM (inactive); 2: > 100 µM (inactive); 3: 14.9 µM (inactive); 4: 14.1 µM (inactive); 5: > 100 µM (inactive)

* * *

test system: HCC 2998; test: NCI tumour cell line growth inhibition, 48 h
The source made the active and inactive calls. Rule as the data show it: active = GI50 up to about 1.1 µM and inactive = higher.
Allowed answers: yes (1) for active, no (0) for inactive

A selection of reference data follows.
Cc1cc(N(CCOS(C)(=O)=O)CCOS(C)(=O)=O)ccc1/C=N/c1ccc(-c2csc(-c3ccccc3)n2)c(Cl)c1
no (0)
CCOC(=O)c1c(CN2CCNCC2)nc2ccccc2c1-c1ccccc1
no (0)
Cc1cc2c(C)n(Cc3ccc(Cl)cc3Cl)nc2c(C(=O)O)c1C
no (0)
CN1CCC2(CC1)C(=O)N(NC(N)=O)C(=O)C2c1ccccc1 (stereo unspecified)
no (0)
CCOC(=O)C1=C(C)N(C2OC(COC(C)=O)C(OC(C)=O)C(OC(C)=O)C2OC(C)=O)C(=O)NC1c1ccccc1 (stereo unspecified)
no (0)
Fc1ccc(C2NC(=S)NC3=C2CCOc2c3ccc3ccccc23)cc1 (stereo unspecified)
no (0)
O=C1CS(=O)(=O)C(c2cccc(Oc3ccccc3)c2)N1c1cccc(Cl)c1 (stereo unspecified)
yes (1)
CCOC(=O)N1N(c2ccccc2)C(=O)C1(c1ccccc1)c1ccccc1
no (0)
COc1cc2c(c(OC)c1OC)-c1ccc(SC)c(=O)cc1[C@@H](NCc1cccc(C#N)c1)CC2
yes (1)
O=C(N/N=C(COc1ccccc1)\N=C\c1ccncc1)c1ccncc1
no (0)

Any idea what this test logged for CC(C)(CO)NC(=O)Nc1c(C(F)(F)F)cc(-c2ccccc2)[nH]c1=O ? no (0)

Outcome? CC1(C)CC2(C)ON=C(c3ccccc3)N2c2ccccc2N1 (stereo unspecified) no (0)

For CNC(=S)/C(C#N)=C(\N)N1CCN(C)CC1 , which call appears in the assay record? no (0)

Can you look up the reported call for O=C1CSC(c2cccs2)N1c1nc2cc3sc(N4C(=O)CSC4c4cccs4)nc3cc2s1 (stereo unspecified) for me? no (0)

What did this assay record as the result for Cc1ccc(C(=O)/C=C2\Nc3cccnc3NC2=O)cc1 ? no (0)

What is the recorded call for this compound in the test? CCOP(=O)(OCC)C(Nc1ccc(F)cc1)c1cccc([N+](=O)[O-])c1 (stereo unspecified) no (0)

Could you kindly confirm the outcome this assay logged for C=C(C)C1CC2C(C)=C(OC(C)=O)C1n1c(=O)c3cc4ccccc4cc3c(=O)n12 (stereo unspecified) ? no (0)

Could you kindly confirm the outcome this assay logged for Cc1cc(C)c(C[C@H]2COC(=O)[C@]2(O)Cc2c(C)cc(C)cc2C)c(C)c1 ? no (0)

Outcome logged for COc1ccc2c3c([nH]c2c1)[C@H](C=C(C)C)N1C(=O)[C@@H]2CCCN2C(=O)[C@@H]1C3 in this assay: no (0)
